biological target: Epithelial sodium channel subunit alpha (Homo sapiens, UniProt P37088); test: Inhibition of S-3969-stimulated recombinant human ENaC alpha subunit expressed in HEK293 cells at 10 uM preincubated for 5 mins followed by S-3969 stimulation by FLIPR assay; type: cell-based; conditions: hek293, 10 µM
Sequence (P37088 whole entry): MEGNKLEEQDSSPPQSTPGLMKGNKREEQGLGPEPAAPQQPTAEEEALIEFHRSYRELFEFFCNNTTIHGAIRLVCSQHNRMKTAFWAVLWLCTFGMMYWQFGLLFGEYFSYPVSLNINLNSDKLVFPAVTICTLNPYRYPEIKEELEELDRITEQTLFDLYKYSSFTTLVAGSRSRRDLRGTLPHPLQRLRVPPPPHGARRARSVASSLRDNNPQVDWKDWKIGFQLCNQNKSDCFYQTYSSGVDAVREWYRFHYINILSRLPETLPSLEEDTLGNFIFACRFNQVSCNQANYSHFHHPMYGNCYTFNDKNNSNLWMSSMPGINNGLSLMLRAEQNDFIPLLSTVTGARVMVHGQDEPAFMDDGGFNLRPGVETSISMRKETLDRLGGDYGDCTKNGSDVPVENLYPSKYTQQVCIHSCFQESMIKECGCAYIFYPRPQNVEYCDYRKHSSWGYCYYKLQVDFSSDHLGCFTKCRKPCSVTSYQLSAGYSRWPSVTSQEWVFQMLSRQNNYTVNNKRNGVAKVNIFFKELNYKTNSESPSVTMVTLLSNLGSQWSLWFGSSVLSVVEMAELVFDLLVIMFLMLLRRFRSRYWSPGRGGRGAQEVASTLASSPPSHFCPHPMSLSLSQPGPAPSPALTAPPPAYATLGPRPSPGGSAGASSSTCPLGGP
result.type: inhibition (INH)

Some solved entries appear below for comparison.
# compound, target, value.reported
data = [
    ("N=C(N)NC(=O)c1nc(-c2cncnc2)c(N2CCCCCC2)nc1N", "Epithelial sodium channel subunit alpha (Homo sapiens, UniProt P37088)", "Not Active"),
    ("N=C(N)NC(=O)c1nc(-c2cc3ccccc3o2)c(N2CCCCCC2)nc1N", "Epithelial sodium channel subunit alpha (Homo sapiens, UniProt P37088)", "Not Active"),
    ("N=C(N)NC(=O)c1nc(-c2ccc(C(F)(F)F)cc2)c(N2CCCCCC2)nc1N", "Epithelial sodium channel subunit alpha (Homo sapiens, UniProt P37088)", "Not Active"),
    ("N=C(N)NC(=O)c1nc(-c2cc3ccccc3[nH]2)c(N2CCCCCC2)nc1N", "Epithelial sodium channel subunit alpha (Homo sapiens, UniProt P37088)", "Not Active"),
]

Field: next compound
Query block: Please look at N=C(N)NC(=O)c1nc(Cl)c(N2CCCCCC2)nc1N [N,N-HEXAMETHYLENEAMILORIDE] and tell me its recorded inhibition (INH) on Epithelial sodium channel subunit alpha (Homo sapiens, UniProt P37088).
Result block: Not Active
